Reference for the values: ChEMBL document CHEMBL5291721

Biological target: Growth hormone secretagogue receptor type 1 (Homo sapiens, UniProt Q92847); further: assay procedure not described here
Sequence (Q92847 whole entry): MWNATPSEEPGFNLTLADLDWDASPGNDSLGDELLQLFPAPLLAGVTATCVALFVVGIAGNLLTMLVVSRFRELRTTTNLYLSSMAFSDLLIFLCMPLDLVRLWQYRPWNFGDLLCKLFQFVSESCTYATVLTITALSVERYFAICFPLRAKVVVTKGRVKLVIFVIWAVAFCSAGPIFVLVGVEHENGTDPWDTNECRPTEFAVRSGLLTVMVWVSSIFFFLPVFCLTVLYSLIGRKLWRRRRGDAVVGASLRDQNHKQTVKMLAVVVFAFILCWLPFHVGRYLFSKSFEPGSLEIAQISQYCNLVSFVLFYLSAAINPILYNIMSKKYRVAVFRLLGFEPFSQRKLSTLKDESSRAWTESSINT
Where a SMILES comes first, the peptide text is derived from it.
READOUT_NAME: AC50

CN(C)CCC(O)(c1ccccc1)c1ccccc1Cl (stereo not drawn) [CHLOPHEDIANOL]: > 10 µM
C[C@@H](O)[C@H]1C(=O)N2C(C(=O)O)=C(SCCN=CN)C[C@H]12 [IMIPENEM ANHYDROUS]: > 300 µM
CN1C2CCCC1CC(NC(=O)c1nn(C)c3ccccc13)C2 (stereo not drawn) [GRANISETRON]: > 30 µM
CCN(CC)CCCN(c1ccccc1)C1Cc2ccccc2C1 [APRINDINE]: 15 µM
CN1CCC(=C2c3ccccc3CC(=O)c3sccc32)CC1 [KETOTIFEN]: > 10 µM
COc1cccc2c1C(=O)c1c(O)c3c(c(O)c1C2=O)C[C@@](O)(C(=O)CO)C[C@@H]3O[C@H]1C[C@H](N)[C@H](O)[C@H](C)O1 [DOXORUBICIN]: > 30 µM
Cc1c(C)c2c(c(C)c1O)CCC(C)(COc1ccc(CC3SC(=O)NC3=O)cc1)O2 (stereo not drawn) [TROGLITAZONE]: > 30 µM
CCC[C@@]1(CCc2ccccc2)CC(O)=C([C@H](CC)c2cccc(NS(=O)(=O)c3ccc(C(F)(F)F)cn3)c2)C(=O)O1: > 30 µM
C[C@H](N)C(=O)N[C@@H](CCC(N)=O)C(=O)O [ALANYL GLUTAMINE] (H-Ala-Gln-OH): > 30 µM
C[C@H](CS)C(=O)N1CCC[C@H]1C(=O)O [CAPTOPRIL]: > 30 µM
CC1Cc2ccccc2N1NC(=O)c1ccc(Cl)c(S(N)(=O)=O)c1 (stereo not drawn) [INDAPAMIDE]: > 30 µM
N=C(N)NC(=O)Cc1c(Cl)cccc1Cl [GUANFACINE]: > 30 µM
CN1C(=O)CN=C(c2ccccc2F)c2cc([N+](=O)[O-])ccc21 [FLUNITRAZEPAM]: 29.1 µM
CCN(CC)CCn1c(=O)c(Cc2ccc(OC)cc2)nc2ccccc21 [CAROVERINE]: 6.47 µM
CN(Cc1ccc(C(C)(C)C)cc1)Cc1cccc2ccccc12 [BUTENAFINE]: > 10 µM
CC(=O)Oc1cccc2c1C(=O)c1c(OC(C)=O)cc(C(=O)O)cc1C2=O [DIACEREIN]: > 30 µM
COc1cc2c(cc1OC)C1CC(=O)C(CC(C)C)CN1CC2 (stereo not drawn) [TETRABENAZINE]: > 30 µM
O=C(C[S+]([O-])Cc1ccco1)NC/C=C\COc1cc(CN2CCCCC2)ccn1 (stereo not drawn) [LAFUTIDINE]: > 10 µM

====

Documented AC50 across a set of compounds
Biological target: 3',5'-cyclic-AMP phosphodiesterase 4D (Homo sapiens, UniProt Q08499); further: assay procedure not described here
Sequence (Q08499 whole entry): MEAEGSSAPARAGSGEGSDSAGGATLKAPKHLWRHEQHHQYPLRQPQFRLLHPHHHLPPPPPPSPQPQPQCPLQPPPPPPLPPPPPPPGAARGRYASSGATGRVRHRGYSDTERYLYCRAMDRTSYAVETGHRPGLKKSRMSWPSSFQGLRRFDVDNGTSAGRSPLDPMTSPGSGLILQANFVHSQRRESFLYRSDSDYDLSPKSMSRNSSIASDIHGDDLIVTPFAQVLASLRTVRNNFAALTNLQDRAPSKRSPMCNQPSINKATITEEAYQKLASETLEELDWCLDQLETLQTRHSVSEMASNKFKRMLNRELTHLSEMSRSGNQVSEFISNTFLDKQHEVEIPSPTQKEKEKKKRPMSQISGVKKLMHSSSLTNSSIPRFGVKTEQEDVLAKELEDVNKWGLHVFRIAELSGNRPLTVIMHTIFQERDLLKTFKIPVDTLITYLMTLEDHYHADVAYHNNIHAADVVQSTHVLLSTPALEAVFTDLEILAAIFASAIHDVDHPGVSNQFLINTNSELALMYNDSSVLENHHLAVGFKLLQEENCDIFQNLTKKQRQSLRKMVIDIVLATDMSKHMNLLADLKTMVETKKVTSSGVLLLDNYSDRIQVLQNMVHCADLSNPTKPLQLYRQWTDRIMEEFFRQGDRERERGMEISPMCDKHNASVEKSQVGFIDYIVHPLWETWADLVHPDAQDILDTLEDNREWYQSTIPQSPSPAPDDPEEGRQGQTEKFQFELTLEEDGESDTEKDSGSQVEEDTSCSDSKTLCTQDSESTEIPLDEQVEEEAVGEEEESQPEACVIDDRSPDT
Type: functional
READOUT_NAME: AC50

CC(=O)OCC(=O)[C@@]1(O)CC[C@H]2[C@@H]3CCC4=CC(=O)CC[C@]4(C)[C@@]3(F)[C@@H](O)C[C@@]21C [FLUDROCORTISONE ACETATE]: > 30 µM
COc1ccc(C(=O)c2ccccc2)c(O)c1: 26 µM
COc1nc(C)nc(Cl)c1N=C1NCCN1: > 30 µM
C[C@]12CCC(=O)C=C1[C@@H]1C[C@@H]1[C@H]1[C@@H]3[C@@H]4C[C@@H]4[C@@]4(CCC(=O)O4)[C@@]3(C)CC[C@@H]12: > 30 µM
COc1ccc(-c2cc(=S)ss2)cc1: > 10 µM

====

Target: 5-hydroxytryptamine receptor 2A (Homo sapiens); further: assay procedure not described here
Sequence (P28223 whole entry): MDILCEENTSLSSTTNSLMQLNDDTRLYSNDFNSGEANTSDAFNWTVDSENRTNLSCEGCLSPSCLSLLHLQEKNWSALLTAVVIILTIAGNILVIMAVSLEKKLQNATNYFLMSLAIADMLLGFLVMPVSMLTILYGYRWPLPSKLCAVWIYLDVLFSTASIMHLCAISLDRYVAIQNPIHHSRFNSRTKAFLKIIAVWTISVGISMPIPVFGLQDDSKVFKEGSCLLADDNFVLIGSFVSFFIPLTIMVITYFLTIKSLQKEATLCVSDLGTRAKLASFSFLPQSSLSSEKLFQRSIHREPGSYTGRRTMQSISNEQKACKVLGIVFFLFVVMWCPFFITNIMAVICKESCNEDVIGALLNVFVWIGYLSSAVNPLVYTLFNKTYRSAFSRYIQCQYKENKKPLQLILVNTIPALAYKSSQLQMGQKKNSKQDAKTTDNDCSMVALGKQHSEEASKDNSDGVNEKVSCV
READOUT_NAME: AC50

CC(C)(N)Cc1ccccc1: > 10 µM
CCOc1ccccc1OCCN[C@H](C)Cc1ccc(OC)c(S(N)(=O)=O)c1: 14.4 µM
COc1ccc2c3c1O[C@H]1C(=O)CC[C@H]4[C@@H](C2)N(C)CC[C@]314 [HYDROCODONE]: > 10 µM
Oc1cc(O)c2c(c1)O[C@H](c1ccc(O)c(O)c1)[C@@H](O)C2: > 10 µM
CN1C(=O)CN=C(c2ccccc2F)c2cc([N+](=O)[O-])ccc21: > 10 µM
Cc1ccc(O)c([C@H](CCN(C(C)C)C(C)C)c2ccccc2)c1: 8.84 µM
C=CC1=C(C(=O)O)N2C(=O)[C@@H](NC(=O)/C(=N\O)c3csc(N)n3)[C@H]2SC1: > 10 µM
CCOc1cc2ncc(C#N)c(Nc3ccc(OCc4ccccn4)c(Cl)c3)c2cc1NC(=O)/C=C/CN(C)C: 8.52 µM
O=C(O[C@H]1C[N+]2(CCCOc3ccccc3)CCC1CC2)C(O)(c1cccs1)c1cccs1 [ACLIDINIUM BROMIDE]: > 10 µM

====

Biological target: D(3) dopamine receptor (Homo sapiens, UniProt P35462); further: assay procedure not described here
Sequence (P35462 whole entry): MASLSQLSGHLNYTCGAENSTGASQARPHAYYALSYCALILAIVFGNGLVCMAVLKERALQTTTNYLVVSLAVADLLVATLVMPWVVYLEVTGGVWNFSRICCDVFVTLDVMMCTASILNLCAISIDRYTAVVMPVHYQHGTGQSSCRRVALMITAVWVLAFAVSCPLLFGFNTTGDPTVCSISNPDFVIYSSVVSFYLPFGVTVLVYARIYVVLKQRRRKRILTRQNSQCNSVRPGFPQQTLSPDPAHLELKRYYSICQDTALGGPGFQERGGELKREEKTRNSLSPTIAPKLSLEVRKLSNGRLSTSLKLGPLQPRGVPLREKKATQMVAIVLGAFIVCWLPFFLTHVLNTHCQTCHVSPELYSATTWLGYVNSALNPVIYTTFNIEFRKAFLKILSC
READOUT_NAME: AC50

CC(=O)OCC(=O)[C@@]1(O)CC[C@H]2[C@@H]3C[C@H](C)C4=CC(=O)C=C[C@]4(C)[C@H]3[C@@H](O)C[C@@]21C [METHYLPREDNISOLONE ACETATE]: > 30 µM
Cc1c(C(C)C)c(=O)n(-c2ccccc2)n1C [PROPYPHENAZONE]: > 30 µM
COc1ccc(C(=O)c2ccccc2)c(O)c1 [OXYBENZONE]: > 30 µM
C[C@@H]1CN(c2c(F)c(N)c3c(=O)c(C(=O)O)cn(C4CC4)c3c2F)C[C@H](C)N1 [SPARFLOXACIN]: > 30 µM
CC(O)(CC(=O)O)CC(=O)O [MEGLUTOL]: > 30 µM
CNC1(c2ccccc2Cl)CCCCC1=O (centres undefined) [KETAMINE]: > 30 µM
CC(C)N1CCN(c2ccc(OCC3COC(Cn4cncn4)(c4ccc(Cl)cc4Cl)O3)cc2)CC1 (centres undefined) [TERCONAZOLE]: 7.12 µM
N=C(N)NC(=O)c1nc(Cl)c(N)nc1N [AMILORIDE]: > 30 µM
O=c1[nH]c(=O)n([C@H]2C[C@H](O)[C@@H](CO)O2)cc1/C=C/Br [BRIVUDINE]: > 30 µM
CC(C)Nc1cccnc1N1CCN(C(=O)c2cc3cc(NS(C)(=O)=O)ccc3[nH]2)CC1 [DELAVIRDINE]: > 30 µM
CO[C@@]1(NC(=O)C(C(=O)O)c2ccc(O)cc2)C(=O)N2C(C(=O)O)=C(CSc3nnnn3C)CO[C@@H]21 (some centres undefined) [MOXALACTAM]: > 30 µM
O=C(OOC(=O)c1ccccc1)c1ccccc1 [BENZOYL PEROXIDE]: > 30 µM
CC(C)N1CCOC(c2cccc(C(F)(F)F)c2)C1 (centres undefined) [OXAFLOZANE]: 1.65 µM
COc1cccc2c1C(=O)c1c(O)c3c(c(O)c1C2=O)C[C@@](O)(C(=O)CO)C[C@@H]3O[C@H]1C[C@H](N)[C@H](O[C@@H]2CCCCO2)[C@H](C)O1 [PIRARUBICIN]: > 30 µM
CC(C)NC[C@H](O)COc1ccc(CCOCC2CC2)cc1 [LEVOBETAXOLOL]: > 30 µM
Cc1ccc(C(C)C)c(O)c1 [THYMOL]: > 30 µM
CC(=O)Nc1ccc(/C=N/NC(N)=S)cc1 [AMITHIOZONE]: > 30 µM
CC#CC(=O)N1CCC[C@H]1c1nc(-c2ccc(C(=O)Nc3ccccn3)cc2)c2c(N)nccn12 [ACALABRUTINIB]: > 30 µM
O=C1Nc2ccccc2C1(c1ccc(O)cc1)c1ccc(O)cc1 [OXYPHENISATINE]: > 30 µM
Cc1c(C)c2c(c(C)c1O)CCC(C)(COc1ccc(CC3SC(=O)NC3=O)cc1)O2 (centres undefined) [TROGLITAZONE]: 6.23 µM
CN(C)CCC=C1c2ccccc2CCc2ccccc21 [AMITRIPTYLINE]: 0.147 µM
C[C@@H](CN1CC(=O)NC(=O)C1)N1CC(=O)NC(=O)C1 [DEXRAZOXANE]: > 30 µM
CC(=O)OCC(=O)[C@@]1(OC(C)=O)[C@@H](C)C[C@H]2[C@@H]3C[C@H](F)C4=CC(=O)C=C[C@]4(C)[C@@]3(F)[C@@H](O)C[C@@]21C [DIFLORASONE DIACETATE]: > 30 µM
NC(=O)C1(N2CCCCC2)CCN(CCCN2c3ccccc3CCc3ccccc32)CC1 [CARPIPRAMINE]: 0.0207 µM

====

Biological target: Alpha-1A adrenergic receptor (Homo sapiens); further: assay procedure not described here
Sequence (P35348 whole entry): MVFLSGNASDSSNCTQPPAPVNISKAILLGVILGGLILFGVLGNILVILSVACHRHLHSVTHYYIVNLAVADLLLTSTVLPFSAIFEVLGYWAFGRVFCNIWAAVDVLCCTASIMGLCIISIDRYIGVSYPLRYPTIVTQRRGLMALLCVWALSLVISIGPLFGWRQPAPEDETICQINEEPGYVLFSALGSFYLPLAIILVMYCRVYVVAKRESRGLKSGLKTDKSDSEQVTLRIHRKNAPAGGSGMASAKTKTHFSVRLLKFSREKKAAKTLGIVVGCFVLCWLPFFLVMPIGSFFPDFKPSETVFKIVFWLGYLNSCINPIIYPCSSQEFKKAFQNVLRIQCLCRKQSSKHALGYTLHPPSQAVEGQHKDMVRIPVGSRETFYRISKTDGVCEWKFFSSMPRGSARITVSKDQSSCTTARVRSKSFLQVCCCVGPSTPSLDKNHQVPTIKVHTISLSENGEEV
Assay type: functional, cell-based
READOUT_NAME: AC50

CC(O)(CC(=O)O)CC(=O)O: > 30 µM
CC(C)(C)NCC(O)COc1ccccc1C#N (stereo unspecified): > 30 µM
CC1(C)CCC(C)(C)c2cc(NC(=O)c3ccc(C(=O)O)cc3)ccc21: > 30 µM
C=CCOc1ccc(CC(=O)O)cc1Cl: > 30 µM
CC(NCCC(c1ccccc1)c1ccccc1)c1ccccc1 (stereo unspecified): 25.8 µM
NS(=O)(=O)c1cc2c(cc1Cl)NC(C(Cl)Cl)NS2(=O)=O (stereo unspecified) [TRICHLORMETHIAZIDE]: > 30 µM
